Experiment: folding enthalpy; higher = less favourable; fluorescence melt of hairpins on a sequencing array, two-state fit
Conditions: sodium 0.088 M
Assign MET whenever folding enthalpy does not fall below -30 kcal/mol; assign NOT MET whenever it does.

Enquiry: Given GTTTTTCGAAAGAATAAC (((.(((....))).))) , state whether its folding enthalpy is at least -30 kcal/mol.
Return: MET

Enquiry: Given GCGGAGCCCGC ((((...)))) , state whether its folding enthalpy is at least -30 kcal/mol.
Return: MET

Enquiry: Given GAATTCCGAAAGGACTTC (((.(((....))).))) , state whether its folding enthalpy is at least -30 kcal/mol.
Return: MET

Enquiry: Given GGTTCTGGAAACAAAACC ((((.((....)).)))) , state whether its folding enthalpy is at least -30 kcal/mol.
Return: MET

Enquiry: Given GTCAAAGGAAACCTTGAC (((((.(....).))))) , state whether its folding enthalpy is at least -30 kcal/mol.
Return: MET

Enquiry: Given GATCCTGGAAACGGGATC (((((.(....).))))) , state whether its folding enthalpy is at least -30 kcal/mol.
Return: NOT MET

Enquiry: Given GATCTCTTCGGAGATC ((((((....)))))) , state whether its folding enthalpy is at least -30 kcal/mol.
Return: NOT MET

* * *

Test: melting temperature; fluorescence melt of hairpins on a sequencing array, two-state fit, raised by 9.35 °C to match UV melts
Conditions: sodium 0.088 M
# Tm annotations
Give just the number in °C; leave the unit off.

Guide cases for Tm, answers given:
GATCCGTTGTCGGATC ((((((....)))))) :: 59.4
CGCAGTCGGAAACGAGCG (((..(((....)))))) :: 36
GGCTTCGAAAGAATAGCC ((((((....)))..))) :: 45.3
GACCAAGAAATTGGTC ((((((....)))))) :: 54.4
GTCCCAGGAAACCAGGAC ((((..(....)..)))) :: 35.6

Enquiry: Need Tm, item GATCACGACGGTGATC ((((((....))))))
Return: 59.8

Enquiry: Need Tm, item GGCCTCCGAAAGGAAGCC (((.(((....))).)))
Return: 55.5

Enquiry: Need Tm, item GTGGTTCGAAAGAACAC (((.(((....))))))
Return: 47.8

Enquiry: Need Tm, item GTCGAGGGAAACCTCGGC (.(((((....))))).)
Return: 57.3

Enquiry: Need Tm, item GTACCCGGAAACGGGTGC (.(((((....))))).)
Return: 60.1

Enquiry: Need Tm, item GGCCTAGGAAACTGGGCC ((((.((....)).))))
Return: 57.9

Enquiry: Need Tm, item GGACTCGCGAAAGCGTCC (((..(((....))))))
Return: 39.1

Enquiry: Need Tm, item GCCAGTGGAAACACCAGC ((..(((....)))..))
Return: 33.1

Enquiry: Need Tm, item GAAACTGAAAAGTTTC ((((((....))))))
Return: 50.4

Enquiry: Need Tm, item GATCAATATTTTGATC ((((((....))))))
Return: 45.6

Enquiry: Need Tm, item GATCAACAGATTGATC ((((((....))))))
Return: 40.4

Enquiry: Need Tm, item GGCAAAGGAAACTTTGTC (.(((((....))))).)
Return: 46.5

Enquiry: Need Tm, item GAGGCACCGAAAGGTCTC (((..(((....))))))
Return: 31.3

Enquiry: Need Tm, item GGCTCCGAAAGGAGTGCC ((((((....)))..)))
Return: 50
